Would you kindly list Plant response rating, Ducksalad for each of these compounds?
test system: ducksalad; test: Test C flooded paddy test; type: in vivo, Heteranthera limosa; settings: Flood; 500 g ai/ha; scale 0 to 100
Numbers only.

Here is how some compounds turned out for Plant response rating, Ducksalad.
Query block: I am curious: what Plant response rating, Ducksalad value has been reported for CC(C)(C)c1cccc(C2CNC(=O)C2C(=O)Nc2cccc(F)c2F)c1 (racemic) ?
Result block: 100

Query block: What value of Plant response rating, Ducksalad has been reported for the following compound? O=C1NCC(c2cccc(C(F)(F)F)c2)C1C(=O)Nc1ncc(Cl)s1 (racemic)
Result block: 50

Query block: For the compound shown here, O=C1NCC(c2cccc(C(F)F)c2)C1C(=O)Nc1cccc(F)c1F (racemic) , give the reported Plant response rating, Ducksalad.
Result block: 75

Query block: Given the compound O=C1NCC(c2cccc(C(F)(F)F)c2)C1C(=O)Nc1cccc(Cl)c1F (centres unmarked) , what is its reported Plant response rating, Ducksalad?
Result block: 65

Okay, now this compound:
Query block: Give the measured Plant response rating, Ducksalad of O=C1NCC(c2ccc(F)c(F)c2)C1C(=O)Nc1cccc(F)c1F (racemic) .
Result block: 60

* * *

Task for the reader: assign each of the following molecules its reported Plant response rating, Wheat.
tested on: wheat; assay: Test A pre-/postemergence herbicide test; format: in vivo, Triticum aestivum; details: Postemergence, 125 g ai/ha; 0 to 100 scale, 0 is no effect, 100 is complete control
Text: […]
Numbers only.

Query block: // returns reported Plant response rating, Wheat for input O=C1NCC(c2cccc(OC(F)F)c2)C1C(=O)Nc1ccccc1C(F)(F)F (stereo not shown)
Result block: 20

Query block: Which Plant response rating, Wheat value is on record for O=C1NCC(c2cccc(C(F)F)c2)C1C(=O)Nc1cccc(F)c1F (racemic) ?
Result block: 30

Query block: I am curious: what Plant response rating, Wheat value has been reported for O=C1NCC(c2cccc(C3CC3)c2)C1C(=O)Nc1cccc(F)c1F (racemic) ?
Result block: 0

Query block: Item under review: O=C1NCC(c2ccc(C(F)(F)F)cc2)C1C(=O)Nc1ccc(F)c(F)c1F (stereo not shown) . Reported Plant response rating, Wheat?
Result block: 30

Query block: Record request: Plant response rating, Wheat value, item O=C1NCC(c2ccc(Cl)cc2)C1C(=O)Nc1ccccc1Cl (stereo not shown)
Result block: 0

Query block: # lookup: Plant response rating, Wheat of COc1ccc(C2CNC(=O)C2C(=O)Nc2ccccc2F)cc1F (racemic)
Result block: 0

Give one value of Plant response rating, Wheat per listed molecule.
1. O=C1NCC(c2ccc(C(F)(F)F)c(F)c2)C1C(=O)Nc1cccc(F)c1F (racemic)
2. CC(C)(C)c1cccc(C2CNC(=O)C2C(=O)Nc2ccccc2C(F)(F)F)c1 (racemic)
3. CCc1cccc(C2CNC(=O)C2C(=O)Nc2cccc(F)c2F)c1 (racemic)
4. O=C1NCC(c2cccc(OC(F)F)c2)C1C(=O)Nc1ccccc1F (stereo not shown)
5. O=C1NCC(c2cccc(C(F)(F)F)c2)C1C(=O)Nc1cccc(F)c1F (stereo not shown)
6. Cc1ccc(F)c(NC(=O)C2C(=O)NCC2c2cccc(C(F)(F)F)c2)c1 (racemic)
7. O=C1NCC(c2cccc(C(F)(F)F)c2)C1C(=O)Nc1cccc(F)c1 (racemic)

Result block:
1: 0; 2: 0; 3: 0; 4: 40; 5: 30; 6: 0; 7: 0

* * *

test system: johnsongrass; assay: Test C pre-/postemergence herbicide test; type: in vivo, Sorghum halepense; conditions: Preemergence, 125 g ai/ha; scale 0 to 100
measurement-kind: Plant response rating, Johnsongrass

Query block: Please look up its Plant response rating, Johnsongrass: O=C1NCC(c2cccc(OC(F)F)c2)C1C(=O)Nc1ccc(F)c(F)c1F (stereo not shown)
Result block: 75

Query block: Which Plant response rating, Johnsongrass value belongs to O=C1NCC(c2cccc(C(F)(F)F)c2)C1C(=O)Nc1ccccc1Cl (stereo not shown) ?
Result block: 80

Query block: Looking for the measured Plant response rating, Johnsongrass of O=C1NCC(c2cccc(Br)c2)C1C(=O)Nc1ccccc1F (stereo not shown) , can you help?
Result block: 0

Now examine the next entry.
Query block: Quick one: Plant response rating, Johnsongrass of O=C1NCC(c2cccc(Br)c2)C1C(=O)Nc1cccc(F)c1F (stereo not shown) ?
Result block: 60

* * *

test system: barnyardgrass; test: Test C pre-/postemergence herbicide test; type: in vivo, Echinochloa crus-galli; details: Preemergence, 125 g ai/ha; scale 0 to 100 (0 no effect, 100 complete control)
measurement-kind: Plant response rating, Barnyardgrass
Give bare numbers.

// below: answered molecules
Query block: Give its Plant response rating, Barnyardgrass value. Item: O=C1NCC(c2ccc(C(F)(F)F)nc2)C1C(=O)Nc1ccccc1F (racemic)
Result block: 90

Query block: GET /values?readout=Plant response rating, Barnyardgrass&item= O=C(Nc1ccccc1F)C1C(=S)NCC1c1cccc(C(F)(F)F)c1 (stereo not drawn)
Result block: 85

Query block: Using the record for O=C1NCC(c2ccc(C(F)(F)F)nc2)C1C(=O)Nc1cccc(F)c1F (racemic) , report its Plant response rating, Barnyardgrass.
Result block: 95

Query block: Any idea what Plant response rating, Barnyardgrass was measured for O=C1NCC(c2cc(F)cc(F)c2)C1C(=O)Nc1cccc(F)c1F (racemic) ?
Result block: 95

Query block: Record request: Plant response rating, Barnyardgrass value, item O=C1NCC(c2cccc(C(F)F)c2)C1C(=O)Nc1cccc(F)c1F (racemic)
Result block: 85

Batch of 4 molecules: report Plant response rating, Barnyardgrass for each.
1. O=C1NCC(c2cccc(C(F)(F)F)c2)C1C(=O)Nc1ccccc1Cl (racemic)
2. O=C1NCC(c2cc(F)cc(F)c2)C1C(=O)Nc1ccc(F)cc1F (racemic)
3. O=C1NCC(c2cccc(Br)c2)C1C(=O)Nc1cccc(F)c1F (stereo not drawn)
4. O=C1NCC(c2ccc(C(F)(F)F)c(F)c2)C1C(=O)Nc1cccc(F)c1F (racemic)

Result block:
1. 90
2. 95
3. 90
4. 90

* * *

Task for the reader: assign each of the following molecules its reported Plant response rating, Ragweed.
system: ragweed; assay: Test C pre-/postemergence herbicide test; format: in vivo, Ambrosia elatior; conditions: Postemergence; 250 g ai/ha; scale 0 to 100 (0 no effect, 100 complete control)
Answers are plain numbers.

Query block: Requested read-out: Plant response rating, Ragweed. Entry: O=C1NCC(c2cc(F)cc(F)c2)C1C(=O)Nc1ccc(F)cc1F (racemic)
Result block: 0

Query block: GET /values?readout=Plant response rating, Ragweed&item= O=C1NCC(c2cccc(C(F)(F)F)c2)C1C(=O)Nc1cccc(Cl)c1F (stereo not shown)
Result block: 65

Query block: Field request: Plant response rating, Ragweed | item: Cc1cccc(NC(=O)C2C(=O)NCC2c2cccc(C(F)(F)F)c2)c1 (stereo not shown)
Result block: 40

Let's switch to this molecule now.
Query block: Endpoint output: Plant response rating, Ragweed of O=C1NCC(c2cccc(C(F)(F)F)c2)C1C(=O)Nc1ccc(F)cc1F (racemic) . Value?
Result block: 15

* * *

system: ragweed; assay: Test A pre-/postemergence herbicide test; type: in vivo, Ambrosia elatior; conditions: Preemergence, 500 g ai/ha; visual rating on 0 to 100 scale (0 no effect, 100 complete control)
measurement-kind: Ragweed plant response rating
Give bare numbers.

Query block: Please provide the recorded Ragweed plant response rating for CC(C)(C)c1cccc(C2CNC(=O)C2C(=O)Nc2ccccc2F)c1 (stereo not shown) [Compound 347] , tested on ragweed.
Result block: 0

Query block: Please state recorded Ragweed plant response rating (tested on ragweed) of O=C1NCC(c2ccc(OC(F)F)cc2)C1C(=O)Nc1ccccc1C(F)(F)F (stereo not shown) [Compound 348]
Result block: 30

Query block: Identify the measured Ragweed plant response rating of O=C1NCC(c2cccc(Oc3ccccc3)c2)C1C(=O)Nc1ccccc1Cl (stereo not shown) [Compound 334] for ragweed.
Result block: 0

Would you kindly look at the next entry?
Query block: Recorded Ragweed plant response rating for CC1(c2ccccc2)CNC(=O)C1C(=O)Nc1ccccc1F (stereo not shown) [Compound 301] with ragweed, please?
Result block: 0

* * *

test system: kochia; experiment: Test A pre-/postemergence herbicide test; assay type: in vivo, Kochia scoparia; conditions: preemergence; 500 g ai/ha; 0 to 100 scale, 0 is no effect and 100 is complete control
measurement-kind: Plant response rating, Kochia
Numbers only.

Query block: Value wanted: Plant response rating, Kochia (kochia) of entry O=C1NCC(c2ccc(OC(F)F)cc2)C1C(=O)Nc1ccccc1Br (stereo not shown) [Compound 225]
Result block: 30

Query block: kochia / Plant response rating, Kochia / Cc1ccccc1NC(=O)C1C(=O)NCC1c1cccc(OC(F)F)c1 (stereo not shown) [Compound 230] : value?
Result block: 30

Query block: kochia / Plant response rating, Kochia / O=C1NCC(c2cccc(C(F)F)c2)C1C(=O)Nc1ccc(F)c(F)c1F (racemic) [Compound 165] : value?
Result block: 70

Hi, could you look up Plant response rating, Kochia for each item in my list?
1. O=C1NCC(c2ccc(C(F)(F)F)cc2)C1C(=O)Nc1ccccc1Cl (stereo not shown) [Compound 233]
2. O=C1NCC(c2ccc(-c3ccccc3F)cc2)C1C(=O)Nc1cccc(F)c1F (stereo not shown) [Compound 235]
3. O=C1NCC(c2cccc(OC(F)F)c2)C1C(=O)Nc1ccccc1F (stereo not shown) [Compound 223]

Result block:
1. 80
2. 0
3. 80
